Hey, just so you know, these numbers are from the supplement of paper PMC8728848.

- Experimental target: Gal(a1-3)[Gal(a1-4)]Gal(b1-4)GlcNAc
- Method summary: glycan array binding signal (z-score within array); higher = stronger binding
- Test parameters: glycan notation: IUPAC condensed, linker removed
Many of the other results were omitted from the sample, so the strongest signals are more common in it than they were.
Assign t whenever glycan array binding signal (z-score) does not fall below 4; assign f whenever it does.

{"columns": ["Binder", "Category label"],
 "data": [
  ["SP16665A-bot-344-23-344 (Bacteroides ovatus) (protein) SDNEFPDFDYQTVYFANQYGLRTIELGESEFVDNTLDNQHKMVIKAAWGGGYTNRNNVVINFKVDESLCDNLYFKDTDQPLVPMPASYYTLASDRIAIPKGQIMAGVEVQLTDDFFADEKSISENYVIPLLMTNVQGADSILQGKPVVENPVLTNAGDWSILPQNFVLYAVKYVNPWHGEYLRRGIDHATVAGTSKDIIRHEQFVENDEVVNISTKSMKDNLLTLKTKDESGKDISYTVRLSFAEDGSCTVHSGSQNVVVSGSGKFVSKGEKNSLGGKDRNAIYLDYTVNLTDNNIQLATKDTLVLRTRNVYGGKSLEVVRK", "f"],
  ["SP8524D-bot-399-27-399 (Bacteroides ovatus) (protein) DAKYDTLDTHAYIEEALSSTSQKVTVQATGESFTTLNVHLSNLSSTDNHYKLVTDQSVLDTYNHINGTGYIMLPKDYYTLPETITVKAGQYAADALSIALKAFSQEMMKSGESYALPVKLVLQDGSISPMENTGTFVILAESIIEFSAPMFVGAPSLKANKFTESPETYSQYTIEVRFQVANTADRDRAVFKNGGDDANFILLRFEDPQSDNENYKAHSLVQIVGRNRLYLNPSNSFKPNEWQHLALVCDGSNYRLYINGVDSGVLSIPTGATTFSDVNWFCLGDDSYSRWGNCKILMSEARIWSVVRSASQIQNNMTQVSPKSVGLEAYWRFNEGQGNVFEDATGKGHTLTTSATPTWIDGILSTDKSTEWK", "f"],
  ["MSMEG3662-2a (Mycobacterium smegmatis), A0QYH7_MYCS2 (protein) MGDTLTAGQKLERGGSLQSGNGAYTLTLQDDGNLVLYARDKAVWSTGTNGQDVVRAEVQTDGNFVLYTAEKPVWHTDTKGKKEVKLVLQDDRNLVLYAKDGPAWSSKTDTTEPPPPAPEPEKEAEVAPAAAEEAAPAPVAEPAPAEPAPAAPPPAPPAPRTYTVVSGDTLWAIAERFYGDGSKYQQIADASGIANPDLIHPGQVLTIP", "f"],
  ["AT1G15820(NC) (Arabidopsis thaliana) (protein) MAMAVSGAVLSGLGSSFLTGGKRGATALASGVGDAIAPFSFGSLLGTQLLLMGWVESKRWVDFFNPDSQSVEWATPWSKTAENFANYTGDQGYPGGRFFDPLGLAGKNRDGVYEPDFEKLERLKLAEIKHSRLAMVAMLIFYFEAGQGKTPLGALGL", "t"],
  ["CSA (Cytisus scoparius), P29257 (protein) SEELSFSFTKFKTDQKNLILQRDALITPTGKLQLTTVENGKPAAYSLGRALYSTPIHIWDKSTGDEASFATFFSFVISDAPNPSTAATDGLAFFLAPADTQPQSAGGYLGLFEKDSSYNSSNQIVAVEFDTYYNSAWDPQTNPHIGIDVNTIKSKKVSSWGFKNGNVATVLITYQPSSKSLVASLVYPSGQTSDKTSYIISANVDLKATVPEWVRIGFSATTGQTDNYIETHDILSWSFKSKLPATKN", "f"]
]}
